biological target: human CYP2C8, CYP2C8 (gene 1558) (UniProt P10632); assay: NVS_ADME_hCYP2C8: NovaScreen (NVS) CYP450-related Enzyme Activity (ADME) Assay for human CYP2C8 (AID 2283104)
Sequence (P10632 whole entry, looked up): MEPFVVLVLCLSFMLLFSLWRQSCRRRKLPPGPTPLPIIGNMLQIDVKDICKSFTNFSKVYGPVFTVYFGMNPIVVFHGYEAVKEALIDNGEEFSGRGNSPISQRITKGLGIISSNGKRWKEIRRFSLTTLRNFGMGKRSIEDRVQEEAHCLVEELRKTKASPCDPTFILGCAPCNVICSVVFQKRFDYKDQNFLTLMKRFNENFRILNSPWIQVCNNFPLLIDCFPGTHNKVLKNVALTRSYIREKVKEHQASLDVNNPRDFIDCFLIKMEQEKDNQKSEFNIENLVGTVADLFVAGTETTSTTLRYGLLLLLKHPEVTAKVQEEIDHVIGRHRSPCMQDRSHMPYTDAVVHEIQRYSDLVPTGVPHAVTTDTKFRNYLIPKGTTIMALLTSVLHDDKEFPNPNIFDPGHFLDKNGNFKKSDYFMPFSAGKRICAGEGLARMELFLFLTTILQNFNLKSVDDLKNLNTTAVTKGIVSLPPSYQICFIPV
Calls of active or inactive are those of the source. How the source made its calls: active means hit-call score of the fitted dose curve at least 0.9, where 1 is the maximum; inactive means score below 0.9.
Labels: True = active, False = inactive

molecule	qualitativeLabel
O=C(NC(=O)c1c(F)cccc1F)Nc1ccc(OC(F)(F)C(F)OC(F)(F)F)c(Cl)c1 (stereo not given)	False
N#Cc1c(Cl)c(Cl)c(Cl)c(C#N)c1Cl	True
O=C1c2ccccc2C(=O)N1SC(Cl)(Cl)Cl	True
O=S(=O)(O)C(F)(F)C(F)(F)C(F)(F)C(F)(F)C(F)(F)C(F)(F)C(F)(F)C(F)(F)F	True
CCCN(CCOc1c(Cl)cc(Cl)cc1Cl)C(=O)n1ccnc1	True

---

target: human Esterase Plasma (ES), BCHE (gene 590); experiment: NVS_ENZ_hES: NovaScreen (NVS) Enzymatic Assay for human Esterase Plasma (ES) (AID 2283157)
Results filed as inconclusive are left out. The source made the active and inactive calls. Rule for the calls: active = hit-call score of the fitted dose curve at least 0.9, where 1 is the maximum; inconclusive = response in the unintended direction; inactive = score below 0.9.

querySmiles	AC50
CNC(=O)/C=C(\C)OP(=O)(OC)OC	18.3 µM (active)
CC(C)N(C(=O)COc1nnc(C(F)(F)F)s1)c1ccc(F)cc1	11.8 µM (active)
COP(=S)(OC)Oc1ccc([N+](=O)[O-])cc1	inactive
CC(C)OC(=O)Nc1cccc(Cl)c1	inactive
COP(=O)(OC)OC=C(Cl)Cl	7.13 µM (active)
CNC(=O)Oc1cccc(N=CN(C)C)c1	inactive

---

target: Nuclear receptor subfamily 1 group I member 2 (Homo sapiens) (UniProt O75469); experiment: ATG_PXR_TRANS: Attagene TRANS-FACTORIAL HepG2 Assay for human Pregnane X Receptor (PXR) (AID 2283008)
Sequence (O75469 whole entry, looked up): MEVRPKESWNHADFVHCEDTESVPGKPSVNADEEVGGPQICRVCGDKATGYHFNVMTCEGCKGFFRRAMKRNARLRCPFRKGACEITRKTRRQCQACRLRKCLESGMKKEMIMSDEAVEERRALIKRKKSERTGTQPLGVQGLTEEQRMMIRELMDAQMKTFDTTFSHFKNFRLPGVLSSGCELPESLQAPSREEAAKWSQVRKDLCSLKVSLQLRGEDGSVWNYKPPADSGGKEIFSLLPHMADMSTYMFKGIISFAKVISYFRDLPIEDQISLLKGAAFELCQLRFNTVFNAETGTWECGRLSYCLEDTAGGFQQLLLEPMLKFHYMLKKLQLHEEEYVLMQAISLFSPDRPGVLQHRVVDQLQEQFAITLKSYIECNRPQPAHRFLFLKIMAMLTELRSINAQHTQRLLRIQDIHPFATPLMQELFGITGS
Records with an inconclusive call do not appear. Active and inactive are the calls of the source. Rule for the calls: active = hit-call score of the fitted dose curve at least 0.9, where 1 is the maximum; inconclusive = response in the unintended direction; inactive = score below 0.9.
Labels: t for active, f for inactive

compound	experimentalSystem	qualitativeLabel
COP(=O)(OC)OC=C(Cl)Cl	Nuclear receptor subfamily 1 group I member 2 (Homo sapiens) (UniProt O75469)	f
O=S1OCC2C(CO1)C1(Cl)C(Cl)=C(Cl)C2(Cl)C1(Cl)Cl (configuration not stated)	Nuclear receptor subfamily 1 group I member 2 (Homo sapiens) (UniProt O75469)	f
COC(=O)c1ccccc1CS(=O)(=O)NC(=O)Nc1nc(OC)cc(OC)n1	Nuclear receptor subfamily 1 group I member 2 (Homo sapiens) (UniProt O75469)	f
N#CN	Nuclear receptor subfamily 1 group I member 2 (Homo sapiens) (UniProt O75469)	f
CNC(=O)Oc1cccc(N=CN(C)C)c1	Nuclear receptor subfamily 1 group I member 2 (Homo sapiens) (UniProt O75469)	f
CC1(c2ccc(Oc3ccccc3)cc2)OC(=O)N(Nc2ccccc2)C1=O (configuration not stated)	Nuclear receptor subfamily 1 group I member 2 (Homo sapiens) (UniProt O75469)	f
CCC(C)Nc1c([N+](=O)[O-])cc(C(C)(C)C)cc1[N+](=O)[O-] (configuration not stated)	Nuclear receptor subfamily 1 group I member 2 (Homo sapiens) (UniProt O75469)	t
O=C(O)C(F)(F)C(F)(F)C(F)(F)C(F)(F)C(F)(F)C(F)(F)C(F)(F)F	Nuclear receptor subfamily 1 group I member 2 (Homo sapiens) (UniProt O75469)	f
COC(=O)c1ccccc1S(=O)(=O)NC(=O)Nc1nc(C)nc(OC)n1	Nuclear receptor subfamily 1 group I member 2 (Homo sapiens) (UniProt O75469)	f
COP(=S)(OC)Oc1ccc(SC)c(C)c1	Nuclear receptor subfamily 1 group I member 2 (Homo sapiens) (UniProt O75469)	t
O=C(Nc1ccccc1)Nc1cnns1	Nuclear receptor subfamily 1 group I member 2 (Homo sapiens) (UniProt O75469)	f
CCC(C)(NC(=O)c1cc(Cl)c(C)c(Cl)c1)C(=O)CCl (configuration not stated)	Nuclear receptor subfamily 1 group I member 2 (Homo sapiens) (UniProt O75469)	f
